system: A498; assay: Growth inhibition of human A498 cells at 10 uM relative to control; assay type: functional; conditions: read-out: GI
quantity: inhibition of growth at 10 µM (%)
# unit: % | format: bare number

{"compound": "COc1ccc(/C=C/C2=CC(c3ccc(OC)c(OC)c3)N3C(C)=CSC3=N2)cc1OC (stereo not given)", "inhibition of growth at 10 µM (%)": 17.6}

Lab note: next compound to report on.
response.value for COc1ccc(/C=C/C2=CC(c3ccc(OC)c(OC)c3)N3C=CSC3=N2)cc1OC (stereo not given) (field: inhibition of growth at 10 µM) = 25.6

---

biological target: DNA; test: Displacement of methyl green from DNA (unknown origin) assessed as DNA intercalation after 24 hrs by colorimetric assay; format: nucleic-acid assay
quantity: IC50 (µg/mL)
# number only, unit µg/mL dropped from output

For reference, reported IC50 for CC1=CSC2=NC(/C=C/c3ccc(Cl)cc3)=CC(c3ccc(Cl)cc3)N12 (configuration not stated) stands at 50.91

Reported IC50 ( COc1cc(/C=C/C2=CC(c3cc(OC)c(OC)c(OC)c3)N3C=CSC3=N2)cc(OC)c1OC (configuration not stated) ) = 55.42

Form: compound = CCOC(=O)C1=CSC2=NC(/C=C/c3ccc(OC)c(OC)c3)=CC(c3ccc(OC)c(OC)c3)N12 (configuration not stated) ; IC50 = 29.86

Given item COc1ccc(/C=C/C2=CC(c3ccc(OC)c(OC)c3)N3C=C(C)SC3=N2)cc1OC (configuration not stated) , the value recorded as its IC50 is 58.32

The compound listed as CC1=CSC2=NC(/C=C/c3ccc(C)cc3)=CC(c3ccc(C)cc3)N12 (configuration not stated) shows IC50 equal to 83.41

Consider COc1ccc(/C=C/C2=CC(c3ccc(OC)c(OC)c3)N3C(C)=CSC3=N2)cc1OC (configuration not stated) . Its measured IC50 is 72.54

The compound identified as COc1ccc(/C=C/C2=CC(c3ccc(OC)cc3)N3C=CSC3=N2)cc1 (configuration not stated) registered its IC50 at 47.75
